Reported Kp at 0.1 h values for the following compounds.
test: Pharmacokinetic measurements in mice (intravenous and intra-nasal dosing); type: in vivo; conditions: male, C57BL/6J, lung/plasma, other: intra-nasal; mouse, i.n. dosing, 0.1 h; read-out: lung/plasma conc ratio at time(h)

compound	Kp at 0.1 h
COC(=O)c1cc2c(cc1C)/C(=C(/Nc1ccc(C(=O)NOCCN(C)C)c(C)c1)c1ccccc1)C(=O)N2 [Example 5]	209
COC(=O)c1cc2c(cc1C)/C(=C(/Nc1ccc(C(=O)NOCCN3CCN(C)CC3)cc1)c1ccccc1)C(=O)N2 [Example 6]	79

====

test system: MRC5 cells; test: Cell viability assay in MRC5 cells (MTT); conditions: 300 nM
measurement.type: Cell viability at 300 nM (%)

compound.smiles	measurement.type	experimental.value
COC(=O)c1cc2c(cc1C)/C(=C(/Nc1ccc(C(=O)N(C)OCCN3CC4CCC(C3)N4)cc1)c1ccccc1)C(=O)N2	Cell viability at 300 nM (%)	86.6
COC(=O)c1cc2c(cc1C)/C(=C(/Nc1ccc(C(=O)NOCCN3CCC(C#N)CC3)cc1)c1ccccc1)C(=O)N2	Cell viability at 300 nM (%)	116.9
COC(=O)c1cc2c(cc1C)/C(=C(/Nc1ccc(C(=O)N(C)OCCN3CCN(CCO)CC3)cc1)c1ccccc1)C(=O)N2	Cell viability at 300 nM (%)	116.9
COC(=O)c1cc2c(cc1C)/C(=C(/Nc1ccc(S(=O)(=O)NOCCN3CCN(C)CC3)cc1)c1ccccc1)C(=O)N2	Cell viability at 300 nM (%)	104.4
COC(=O)c1cc2c(cc1C)/C(=C(/Nc1ccc(C(=O)NOCCN(C)C)c(C)c1)c1ccccc1)C(=O)N2	Cell viability at 300 nM (%)	92.5
COC(=O)c1ccc2c(c1)NC(=O)/C2=C(\Nc1ccc(C(=O)NOCCN2CCN(CCO)CC2)cc1)c1ccccc1	Cell viability at 300 nM (%)	90.1
COC(=O)c1cc2c(cc1C)/C(=C(/Nc1ccc(C(=O)NOCCN3CCN(C)CC3)c(C)c1)c1ccccc1)C(=O)N2	Cell viability at 300 nM (%)	117
COC(=O)c1cc2c(cc1C)/C(=C(/Nc1ccc(C(=O)NOC3CCN(C)CC3)c(C)c1)c1ccccc1)C(=O)N2	Cell viability at 300 nM (%)	97.3
COC(=O)c1cc2c(cc1C)/C(=C(/Nc1ccc(C(=O)N(C)OCCN3CCN[C@@H](C)C3)cc1)c1ccccc1)C(=O)N2	Cell viability at 300 nM (%)	73.8
COC(=O)c1ccc2c(c1)NC(=O)/C2=C(\Nc1ccc(C(=O)NOCCN2CCN(C)CC2)c(C)c1)c1ccccc1	Cell viability at 300 nM (%)	90.5
CNC(=O)CN1CCN(CCON(C)C(=O)c2ccc(N/C(=C3\C(=O)Nc4cc(C(=O)OC)c(C)cc43)c3ccccc3)cc2)CC1	Cell viability at 300 nM (%)	96.3
COC(=O)c1cc2c(cc1C)/C(=C(/Nc1ccc(C(=O)NOCCCN(C)C)c(C)c1)c1ccccc1)C(=O)N2	Cell viability at 300 nM (%)	85.8
COC(=O)c1cc2c(cc1C)/C(=C(/Nc1ccc(C(=O)N(C)OCCN3CC4CC(C3)N4)cc1)c1ccccc1)C(=O)N2	Cell viability at 300 nM (%)	92.9
